- system_tested: T1, human VEGF (hVEGF) (human, UniProt P15692 181-395)
- T1 construct: also called VEGF-A
- T1 sequence: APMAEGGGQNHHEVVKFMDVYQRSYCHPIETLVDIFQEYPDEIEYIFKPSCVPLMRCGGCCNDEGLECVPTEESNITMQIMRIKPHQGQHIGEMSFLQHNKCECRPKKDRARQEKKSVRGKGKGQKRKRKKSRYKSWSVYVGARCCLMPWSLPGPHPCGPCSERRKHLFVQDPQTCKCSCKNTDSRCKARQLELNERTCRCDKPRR
- assay_explanation: SPR single-cycle
property_measured: kon (M⁻¹ s⁻¹)
# value in M⁻¹ s⁻¹; strip the unit string

binder	property_measured	observed_measurement
G6.31 HC-A40E (Fab, name in Kabat numbering, V domains shown, Fab) VH: EVQLVESGGGLVQPGGSLRLSCAASGFTISDYWIHWVRQEPGKGLEWVAGITPAGGYTYYADSVKGRFTISADTSKNTAYLQMNSLRAEDTAVYYCARFVFFLPYAMDYWGQGTLVTVSS VL: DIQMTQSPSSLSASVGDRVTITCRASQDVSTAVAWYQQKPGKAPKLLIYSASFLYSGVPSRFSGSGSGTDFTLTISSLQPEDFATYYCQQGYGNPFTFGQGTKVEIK	kon	1.13e+06
G6.31 LC-T97N (Fab, V domains shown, Fab) VH: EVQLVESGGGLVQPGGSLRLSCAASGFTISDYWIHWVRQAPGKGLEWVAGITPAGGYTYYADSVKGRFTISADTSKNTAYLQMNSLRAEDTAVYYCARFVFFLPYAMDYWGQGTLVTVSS VL: DIQMTQSPSSLSASVGDRVTITCRASQDVSTAVAWYQQKPGKAPKLLIYSASFLYSGVPSRFSGSGSGTDFTLTISSLQPEDFATYYCQQGYGNPFNFGQGTKVEIK	kon	432000
G6.31 LC-Q89N (Fab, V domains shown, Fab) VH: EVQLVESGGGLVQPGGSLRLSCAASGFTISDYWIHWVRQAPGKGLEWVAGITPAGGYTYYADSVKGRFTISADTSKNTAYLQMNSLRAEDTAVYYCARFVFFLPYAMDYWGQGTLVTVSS VL: DIQMTQSPSSLSASVGDRVTITCRASQDVSTAVAWYQQKPGKAPKLLIYSASFLYSGVPSRFSGSGSGTDFTLTISSLQPEDFATYYCNQGYGNPFTFGQGTKVEIK	kon	991000

Now look at this entry.
The reported value for G6.31 HC-Y59T (Fab, name in Kabat numbering, V domains shown, Fab) VH: EVQLVESGGGLVQPGGSLRLSCAASGFTISDYWIHWVRQAPGKGLEWVAGITPAGGYTYTADSVKGRFTISADTSKNTAYLQMNSLRAEDTAVYYCARFVFFLPYAMDYWGQGTLVTVSS VL: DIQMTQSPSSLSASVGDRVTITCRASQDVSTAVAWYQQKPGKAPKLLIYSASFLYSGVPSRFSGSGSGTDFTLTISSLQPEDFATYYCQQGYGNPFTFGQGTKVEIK in terms of kon is 360000
